Tested on: Fibroblast
Assay: Multiplex assay against human fibroblast
Type: toxicity, cell-based
Conditions: 12 h, 1 µM, compound concentration 1 uM, replicate 2
Non-standard residues stand in square brackets, D forms with d. Residues, ends and D or L forms follow the SMILES beside them.
MEASURED_ENDPOINT: Population Membrane Permeable-Phenotype (%)
Numbers only here, please. The scale is %.

Below, each entry is followed by its recorded Population Membrane Permeable-Phenotype (%) result.
{"columns": ["MOLECULE", "DATA_VALUE"],
 "data": [
  ["N[C@](CC1c2ccccc2Oc2ccccc21)(C(=O)O)[C@H]1C[C@@H]1C(=O)O", 7],
  ["CC(C)(O)C(=O)N1CCN(c2ccc(C(F)(F)F)c(C3=C(c4c[nH]c5ccccc45)C(=O)NC3=O)c2)CC1", 5],
  ["CN1CCN2c3ccccc3Cc3ccccc3C2C1.Cl (configuration not stated) [MIANSERIN HYDROCHLORIDE]", 12],
  ["O=C(Nc1cc(-c2ccccc2)nn1-c1ccccc1F)c1ccc([N+](=O)[O-])cc1", 4],
  ["CC(C)C[C@@H]1NC(=O)[C@@H](C(C)C)NC(=O)[C@@H]2CCCN2C(=O)[C@@H](CC(=O)O)NC(=O)[C@@H](Cc2c[nH]c3ccccc23)NC1=O [BQ-123] (cyclo(L[dW][dD]P[dV]))", 5]
]}

Below: the item to evaluate.
Form: Entry = COc1ccc2c(c1OCc1ccccc1)C[C@@H](C(=O)O)N(C(=O)C(c1ccccc1)c1ccccc1)C2 | System = Fibroblast | Population Membrane Permeable-Phenotype (%) = ____
9

src = ChEMBL document CHEMBL5058577
